Conditions: buffer; pH 7.4; 200.0 µM
parameter: solubility kinetic

See these solved cases before continuing.
| compound_smiles | obs_value |
| --- | --- |
| O=C(O)CN1C(=O)C(=O)N(Cc2ccc(Cl)c(Cl)c2)C1=O | 46.1 µg/mL |
| Cc1cc(C)cc(NC(=S)N2CCN(c3ccccn3)CC2)c1 | 9.2 µg/mL |
| COc1ccc(C(=O)OCC(=O)c2ccc3c(c2)NC(=O)CO3)cc1OC | 10.8 µg/mL |

Working through the 3 compounds below one at a time, give solubility kinetic for each.
1. CN(C)CCSc1nc(-c2ccccc2)nc2c1CCCC2
2. Cc1ccc(/C=C/C(=O)OCC(=O)NCCc2ccc(S(N)(=O)=O)cc2)o1
3. COCc1cccc(C(=O)NC(c2ccccc2)c2ccccc2)c1

Response:
1: 17.9 µg/mL; 2: > 58.9 µg/mL; 3: 3.1 µg/mL
